# measured target: PARP2 (Homo sapiens, UniProt Q9UGN5)
# Construct: made in house
# Sequence (Q9UGN5 whole entry): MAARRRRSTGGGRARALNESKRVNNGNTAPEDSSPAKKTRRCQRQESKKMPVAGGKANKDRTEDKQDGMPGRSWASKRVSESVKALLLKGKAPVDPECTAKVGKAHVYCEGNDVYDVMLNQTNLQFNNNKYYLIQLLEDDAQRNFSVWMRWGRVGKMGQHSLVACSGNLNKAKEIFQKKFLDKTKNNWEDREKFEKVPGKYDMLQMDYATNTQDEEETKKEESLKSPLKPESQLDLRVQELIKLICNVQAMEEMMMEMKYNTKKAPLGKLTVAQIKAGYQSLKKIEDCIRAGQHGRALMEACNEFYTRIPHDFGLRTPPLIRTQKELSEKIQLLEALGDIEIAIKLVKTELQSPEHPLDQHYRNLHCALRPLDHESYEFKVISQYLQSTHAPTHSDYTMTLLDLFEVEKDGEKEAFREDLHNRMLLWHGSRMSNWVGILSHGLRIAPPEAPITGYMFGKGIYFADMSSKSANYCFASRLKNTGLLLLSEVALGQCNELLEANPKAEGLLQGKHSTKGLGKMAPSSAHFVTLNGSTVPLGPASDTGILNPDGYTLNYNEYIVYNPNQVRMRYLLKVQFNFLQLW
# experiment description: Biochemical fluorescent polarization (FP) assay, displacement of PARPi-FL, PARP2
# Assay type: binding
# condition details: 20 nM protein, 3 nM PARPi-FL, 4 h at room temperature; read-out: FP PARP2 pIC50 (converted)
recorded metric: IC50

molecule | recorded metric | value measured
Cc1c(C(F)F)c(=O)[nH]c2cc(CN3CCN(c4ccc(C#N)cn4)CC3)cnc12 | IC50 | 0.316 µM

For the molecule `CCc1cc2ncc(CN3CCN(c4ccc(Br)cn4)CC3)cc2[nH]c1=O` , give its reported IC50. > 100 µM

Provide only the value of recorded IC50 for `N#Cc1ccc(N2CCN(Cc3cnc4cc(Cl)c(=O)[nH]c4c3)CC2)c(Cl)n1` > 100 µM
